Listed molecules paired with reported IC50
Test system: 922993-354-T-J3-PDC complex spheroids, viability, % test/control
measurement_notes: Anticancer human tumor 922993-354-T-J3-PDC patient-derived endometrial carcinoma cell line growth inhibition [CLK]
experimental_context: curve of first compound; second compound 0.316 µM
Source text: A high-throughput screen of multi-cell type tumor spheroids was designed to identify active combinations of […] and targeted small molecules. Complex spheroids include a stromal component modeled by human endothelial cells (HUVEC) and fibroblasts modeled by human mesenchymal stem cells (MSCs). […] Compounds. […] If the clinical Cmax for an agent had not been determined, the highest concentration tested was 10 microM. […]
Reply with just the number (in nM).

| molecule | unit_of_measurement | IC50 |
| --- | --- | --- |
| COC1C=CCC(C)C(C)S(=O)(=O)NC(=O)c2ccc3c(c2)N(CC2CCC21)CC1(CCCc2cc(Cl)ccc21)CO3 (stereo unspecified) + CNC(=O)c1ccc(Nc2nc(OC3CCCC3)c3c(-c4ccc5nc(C)oc5c4)c[nH]c3n2)c(OC)c1 | nM | 2250 |
| Nc1ccccc1NC(=O)c1ccc(CNC(=O)OCc2cccnc2)cc1 + CNC(=O)c1ccc(Nc2nc(OC3CCCC3)c3c(-c4ccc5nc(C)oc5c4)c[nH]c3n2)c(OC)c1 | nM | 2290 |

// IC50 lookup, molecule = CCN1CCN(Cc2ccc(Nc3ncc(F)c(-c4cc(F)c5nc(C)n(C(C)C)c5c4)n3)nc2)CC1 + CNC(=O)c1ccc(Nc2nc(OC3CCCC3)c3c(-c4ccc5nc(C)oc5c4)c[nH]c3n2)c(OC)c1 , result: 297

---

Test system: 922993-354-T-J3-PDC complex spheroids, viability, % test/control
measurement_notes: Anticancer human tumor 922993-354-T-J3-PDC cell line growth inhibition [CLK];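 further: spheroids exposed to the agents for 7 days before readout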
experimental_context: second compound 0.316 µM; first compound 0.03 µM; stronger effect = lower value
Reported viability, T/C values are given for each entry in this list.
Give the value, in units of %, as a plain number.

Answered examples (5):
| molecule | viability, T/C / % |
| --- | --- |
| C=CC(=O)Nc1cc(Nc2nccc(-c3cn(C)c4ccccc34)n2)c(OC)cc1N(C)CCN(C)C + CN1CCN(c2cc(C(=O)Nc3cc4cc(-c5cnn(C)c5)ccc4cn3)ccn2)CC1 | 22.8 |
| NC(=O)C(=Cn1cnc(-c2cc(C(F)(F)F)cc(C(F)(F)F)c2)n1)c1cncnc1 + CN1CCN(c2cc(C(=O)Nc3cc4cc(-c5cnn(C)c5)ccc4cn3)ccn2)CC1 | 32.3 |
| CC(C)CC(NC(=O)C(Cc1ccccc1)NC(=O)c1cnccn1)B(O)O (stereo unspecified) + CN1CCN(c2cc(C(=O)Nc3cc4cc(-c5cnn(C)c5)ccc4cn3)ccn2)CC1 | 6.46 |
| NC(=O)C(=Cn1cnc(-c2cc(C(F)(F)F)cc(C(F)(F)F)c2)n1)c1cncnc1 + CNC(=O)c1ccc(Nc2nc(OC3CCCC3)c3c(-c4ccc5nc(C)oc5c4)c[nH]c3n2)c(OC)c1 | 99 |
| C=CC(=O)Nc1cc(Nc2nccc(-c3cn(C)c4ccccc34)n2)c(OC)cc1N(C)CCN(C)C + CNC(=O)c1ccc(Nc2nc(OC3CCCC3)c3c(-c4ccc5nc(C)oc5c4)c[nH]c3n2)c(OC)c1 | 42 |

// assay 922993-354-T-J3-PDC complex spheroids, viability, % test/control, entry CC(C)CC(NC(=O)C(Cc1ccccc1)NC(=O)c1cnccn1)B(O)O (stereo unspecified) + CNC(=O)c1ccc(Nc2nc(OC3CCCC3)c3c(-c4ccc5nc(C)oc5c4)c[nH]c3n2)c(OC)c1 , viability, T/C value = 6.18

---

Test system: 922993-354-T-J3-PDC complex spheroids, viability, % test/control
measurement_notes: Anticancer human tumor 922993-354-T-J3-PDC cell line growth inhibition [CLK];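 further: spheroids exposed to the agents for 7 days before readout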
experimental_context: second compound 0.1 µM; first compound 1 µM; stronger effect = lower value
# Lookup of reported viability, T/C keyed by entry

These recorded examples may help you get a feel for the data.
| molecule | obs_value |
| --- | --- |
| O=C(c1cc(Cc2n[nH]c(=O)c3ccccc23)ccc1F)N1CCN(C(=O)C2CC2)CC1 + CNC(=O)c1ccc(Nc2nc(OC3CCCC3)c3c(-c4ccc5nc(C)oc5c4)c[nH]c3n2)c(OC)c1 | 105% |
| CCc1c2c(nc3ccc(O)cc13)-c1cc3c(c(=O)n1C2)COC(=O)[C@]3(O)CC + CN1CCN(c2cc(C(=O)Nc3cc4cc(-c5cnn(C)c5)ccc4cn3)ccn2)CC1 | 32.3% |

Reported viability, T/C for Nc1ccccc1NC(=O)c1ccc(CNC(=O)OCc2cccnc2)cc1 + CNC(=O)c1ccc(Nc2nc(OC3CCCC3)c3c(-c4ccc5nc(C)oc5c4)c[nH]c3n2)c(OC)c1 was 77.4%

Summary for this molecule, CCN1CCN(Cc2ccc(Nc3ncc(F)c(-c4cc(F)c5nc(C)n(C(C)C)c5c4)n3)nc2)CC1 + CN1CCN(c2cc(C(=O)Nc3cc4cc(-c5cnn(C)c5)ccc4cn3)ccn2)CC1 : viability, T/C is 60.5%

Reported viability, T/C of CC(Nc1ccc2c(c1)OCCn1cc(N3C(=O)OCC3C(F)F)nc1-2)C(N)=O (stereo not given) + CN1CCN(c2cc(C(=O)Nc3cc4cc(-c5cnn(C)c5)ccc4cn3)ccn2)CC1 : 50.3%

---

System: 922993-354-T-J3-PDC complex spheroids, viability, % test/control
measurement_notes: Anticancer human tumor 922993-354-T-J3-PDC cell line growth inhibition [CLK]; active = viability on the fitted dose curve at most 10% of control; inactive = the rest;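 further: spheroids exposed to the agents for 7 days before readout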
experimental_context: second compound 1 µM; first compound 1 µM
Would you mind answering with one of these outcomes? active, inactive

Please review the following examples before continuing.
| molecule | classification |
| --- | --- |
| COc1cccc2c1C(=O)c1c(O)c3c(c(O)c1C2=O)CC(O)(C(=O)CO)CC3OC1CC(N)C(O)C(C)O1 (stereo unspecified) + CN1CCN(c2cc(C(=O)Nc3cc4cc(-c5cnn(C)c5)ccc4cn3)ccn2)CC1 | active |
| CCN1CCN(Cc2ccc(Nc3ncc(F)c(-c4cc(F)c5nc(C)n(C(C)C)c5c4)n3)nc2)CC1 + CN1CCN(c2cc(C(=O)Nc3cc4cc(-c5cnn(C)c5)ccc4cn3)ccn2)CC1 | active |
| CC(Nc1ccc2c(c1)OCCn1cc(N3C(=O)OCC3C(F)F)nc1-2)C(N)=O (stereo unspecified) + CN1CCN(c2cc(C(=O)Nc3cc4cc(-c5cnn(C)c5)ccc4cn3)ccn2)CC1 | active |

Q) Which result was noted for this molecule in the test: CCCS(=O)(=O)Nc1ccc(F)c(C(=O)c2c[nH]c3ncc(-c4ccc(Cl)cc4)cc23)c1F + CN1CCN(c2cc(C(=O)Nc3cc4cc(-c5cnn(C)c5)ccc4cn3)ccn2)CC1
A) active

Q) Given CC(CO)NC(=O)c1cc(-c2ccc(Cl)cc2)nn(-c2cnn(C)c2)c1=O (stereo unspecified) + CN1CCN(c2cc(C(=O)Nc3cc4cc(-c5cnn(C)c5)ccc4cn3)ccn2)CC1 , state the outcome it received in this test.
A) active

Q) Hi, sorry to bother you, what did the test record for O=c1[nH]cc(F)c(=O)[nH]1 + CNC(=O)c1ccc(Nc2nc(OC3CCCC3)c3c(-c4ccc5nc(C)oc5c4)c[nH]c3n2)c(OC)c1 ?
A) inactive

Q) Check the results log: what was the call for COc1c(OCCCN2CCOCC2)ccc2c3n(c(=NC(=O)c4cnc(N)nc4)nc12)CCN3 + CNC(=O)c1ccc(Nc2nc(OC3CCCC3)c3c(-c4ccc5nc(C)oc5c4)c[nH]c3n2)c(OC)c1 ?
A) active

Q) Hi team, can someone confirm the assay call for CC1COCCN1c1cc(C2(S(C)(=N)=O)CC2)nc(-c2ccnc3[nH]ccc23)n1 (stereo unspecified) + CNC(=O)c1ccc(Nc2nc(OC3CCCC3)c3c(-c4ccc5nc(C)oc5c4)c[nH]c3n2)c(OC)c1 ?
A) inactive

---

Let's look at some compounds and their measured viability, T/C.
Tested on: 922993-354-T-J3-PDC complex spheroids, viability, % test/control
measurement_notes: Anticancer human tumor 922993-354-T-J3-PDC cell line growth inhibition [CLK];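 further: spheroids exposed to the agents for 7 days before readout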
experimental_context: second compound 0.316 µM; first compound 0.0316 µM; stronger effect = lower value

| compound | target_desc | obs_value |
| --- | --- | --- |
| C#Cc1c(F)ccc2cc(O)cc(-c3ncc4c(N5CC6CCC(C5)N6)nc(OCC56CCCN5CC(F)C6)nc4c3F)c12 (stereo not given) + CNC(=O)c1ccc(Nc2nc(OC3CCCC3)c3c(-c4ccc5nc(C)oc5c4)c[nH]c3n2)c(OC)c1 | 922993-354-T-J3-PDC complex spheroids, viability, % test/control | 61.4% |
| CC1COCCN1c1cc(C2(S(C)(=N)=O)CC2)nc(-c2ccnc3[nH]ccc23)n1 (stereo not given) + CNC(=O)c1ccc(Nc2nc(OC3CCCC3)c3c(-c4ccc5nc(C)oc5c4)c[nH]c3n2)c(OC)c1 | 922993-354-T-J3-PDC complex spheroids, viability, % test/control | 67.4% |
| C=CC(=O)N1CCN(c2nc(=O)n(-c3c(C)ccnc3C(C)C)c3nc(-c4c(O)cccc4F)c(F)cc23)C(C)C1 (stereo not given) + CN1CCN(c2cc(C(=O)Nc3cc4cc(-c5cnn(C)c5)ccc4cn3)ccn2)CC1 | 922993-354-T-J3-PDC complex spheroids, viability, % test/control | 50.9% |
| CC1(C)CCC(CN2CCN(c3ccc(C(=O)NS(=O)(=O)c4ccc(NCC5CCOCC5)c([N+](=O)[O-])c4)c(Oc4cnc5[nH]ccc5c4)c3)CC2)=C(c2ccc(Cl)cc2)C1 + CN1CCN(c2cc(C(=O)Nc3cc4cc(-c5cnn(C)c5)ccc4cn3)ccn2)CC1 | 922993-354-T-J3-PDC complex spheroids, viability, % test/control | 40% |

Now for another entry.
// field: viability, T/C; key: C=C(F)C(=O)N1CCN(c2nc(OCC3CCCN3C)nc3c2CCN(c2cccc4cccc(Cl)c24)C3)CC1CC#N (stereo not given) + CNC(=O)c1ccc(Nc2nc(OC3CCCC3)c3c(-c4ccc5nc(C)oc5c4)c[nH]c3n2)c(OC)c1 ; value = 61.1%
